# TARGET_SYSTEM: HER2 (Homo sapiens)
# Sequence (P04626 23-1255): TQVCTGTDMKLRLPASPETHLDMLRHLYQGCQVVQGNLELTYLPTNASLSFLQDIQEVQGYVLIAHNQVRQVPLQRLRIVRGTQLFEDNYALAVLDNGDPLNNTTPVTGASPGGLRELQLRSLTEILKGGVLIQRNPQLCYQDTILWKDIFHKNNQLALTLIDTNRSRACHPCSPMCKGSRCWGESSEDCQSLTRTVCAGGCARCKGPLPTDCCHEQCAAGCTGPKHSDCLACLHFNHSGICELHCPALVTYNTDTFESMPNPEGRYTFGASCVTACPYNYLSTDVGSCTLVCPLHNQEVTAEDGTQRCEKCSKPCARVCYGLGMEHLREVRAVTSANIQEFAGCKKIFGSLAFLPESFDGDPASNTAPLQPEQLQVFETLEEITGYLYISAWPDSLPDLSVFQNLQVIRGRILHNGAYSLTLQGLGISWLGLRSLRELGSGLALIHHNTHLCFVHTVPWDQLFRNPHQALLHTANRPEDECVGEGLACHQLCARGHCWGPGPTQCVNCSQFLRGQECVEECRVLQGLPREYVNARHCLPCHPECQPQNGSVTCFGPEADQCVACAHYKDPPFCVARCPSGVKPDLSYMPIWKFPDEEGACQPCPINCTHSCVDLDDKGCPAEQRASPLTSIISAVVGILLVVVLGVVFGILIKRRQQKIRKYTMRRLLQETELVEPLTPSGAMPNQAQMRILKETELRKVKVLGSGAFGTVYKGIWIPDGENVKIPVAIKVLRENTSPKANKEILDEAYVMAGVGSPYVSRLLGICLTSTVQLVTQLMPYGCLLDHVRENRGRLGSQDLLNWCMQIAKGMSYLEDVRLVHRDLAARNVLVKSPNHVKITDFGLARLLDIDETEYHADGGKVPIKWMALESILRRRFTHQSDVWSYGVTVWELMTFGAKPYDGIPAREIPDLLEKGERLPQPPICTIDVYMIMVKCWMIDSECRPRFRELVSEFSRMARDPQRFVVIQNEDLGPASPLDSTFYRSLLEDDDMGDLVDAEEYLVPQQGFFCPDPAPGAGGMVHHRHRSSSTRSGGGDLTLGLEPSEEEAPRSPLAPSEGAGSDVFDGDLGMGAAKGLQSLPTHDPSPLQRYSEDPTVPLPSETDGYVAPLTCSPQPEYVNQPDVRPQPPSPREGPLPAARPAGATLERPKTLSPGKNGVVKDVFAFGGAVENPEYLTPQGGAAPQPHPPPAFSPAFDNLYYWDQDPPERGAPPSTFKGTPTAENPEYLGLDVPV
# ASSAY_OVERVIEW: biochemical
# PARTICULARS: read-out: IC50 HER2 Inhibition
PARAMETER_MEASURED: IC50 (nM)
Numeric only. Scale: nM

Reference set, count: 3
CCN(CC)c1ccc(/C=N/NC(=O)c2ccc(S(C)(=O)=O)cc2)c(O)c1 70
CS(=O)(=O)c1ccc(C(=O)N/N=C/c2ccccc2O)cc1 130
Cc1ccc(C=NNC(=O)c2ccc(S(C)(=O)=O)cc2)cc1 410

Task: // lookup IC50 for CS(=O)(=O)c1ccc(C(=O)NN=Cc2cccc3ccccc23)cc1
Output: 350

###

Recorded inhibition at 10 µM for the following compounds
# Tested on: CAKI-1
# ASSAY_OVERVIEW: NCI antitumor screen (SRB)
# Format: cell-based
# PARTICULARS: Homo sapiens, one dose 10 µM, read-out: Growth inhibition percentage (GI%)
Numeric only. Scale: %

Reference set, count: 2
COMPOUND	PARAMETER_MEASURED	ENDPOINT_RESULT
CCN(CC)c1ccc(/C=N/NC(=O)c2ccc(S(C)(=O)=O)cc2)c(O)c1 [Compound 20]	inhibition at 10 µM	79.6
O=c1[nH]cc(F)c(=O)[nH]1 [Compound 5-Fu, 5-fluorouracil, reference compound]	inhibition at 10 µM	60.6

Task: // lookup inhibition at 10 µM for Cc1ccc(C=NNC(=O)c2ccc(S(C)(=O)=O)cc2)cc1 [Compound 9]
Output: 25

###

# Test system: NCI-H522
# ASSAY_OVERVIEW: NCI antitumor screen (SRB)
# Assay type: cell-based
# PARTICULARS: Homo sapiens; NCI-H522; one dose 10 µM; read-out: Growth inhibition percentage (GI%)
PARAMETER_MEASURED: inhibition at 10 µM (%)
Numeric only. Scale: %

MOLECULE	inhibition at 10 µM, %
CS(=O)(=O)c1ccc(C(=O)NN=Cc2ccc(Cl)cc2Cl)cc1 [Compound 17]	25
CCN(CC)c1ccc(/C=N/NC(=O)c2ccc(S(C)(=O)=O)cc2)c(O)c1 [Compound 20]	90.1
COc1cc(OC)c(OC)cc1/C=N/NC(=O)c1ccc(S(C)(=O)=O)cc1 [Compound 24]	39.8

Attention now turns to another entry.
Task: // lookup inhibition at 10 µM for O=c1[nH]cc(F)c(=O)[nH]1 [Compound 5-Fu, 5-fluorouracil, reference compound]
Output: 42

###

Recorded inhibition at 10 µM for the following compounds
# Test system: MDA-MB-435
# ASSAY_OVERVIEW: NCI antitumor screen (SRB)
# Assay type: cell-based
# PARTICULARS: Homo sapiens, one dose 10 µM, read-out: Growth inhibition percentage (GI%)
Numeric only. Scale: %

COMPOUND	TARGET_SYSTEM	PARAMETER_MEASURED	UNITS_SYMBOL	ENDPOINT_RESULT
CCN(CC)c1ccc(/C=N/NC(=O)c2ccc(S(C)(=O)=O)cc2)c(O)c1 [Compound 20]	MDA-MB-435	inhibition at 10 µM	%	62.8

Task: // lookup inhibition at 10 µM for CS(=O)(=O)c1ccc(C(=O)N/N=C/c2ccccc2O)cc1 [Compound 16]
Output: 40.3

Task: Same question, CS(=O)(=O)c1ccc(C(=O)NN=Cc2cccc3ccccc23)cc1 [Compound 6] this time
Output: 82.9

Task: Same question, O=c1[nH]cc(F)c(=O)[nH]1 [Compound 5-Fu, 5-fluorouracil, reference compound] this time
Output: 63.4

Task: Same question, Cc1ccc(C=NNC(=O)c2ccc(S(C)(=O)=O)cc2)cc1 [Compound 9] this time
Output: 47.5

###

# System: SR
# ASSAY_OVERVIEW: NCI antitumor screen (SRB)
# Format: cell-based
# PARTICULARS: Homo sapiens, one dose 10 µM, read-out: Growth inhibition percentage (GI%)
PARAMETER_MEASURED: inhibition at 10 µM (%)
Numeric only. Scale: %

Reference set, count: 5
COMPOUND	inhibition at 10 µM [%]
COc1ccccc1C=NNC(=O)c1ccc(S(C)(=O)=O)cc1 [Compound 15]	15.6
Cc1ccc(NC(=O)c2ccc(CN3CCN(C)CC3)cc2)cc1Nc1nccc(-c2cccnc2)n1 [Imatinib, imatinib, reference compound]	14.6
CS(=O)(=O)c1ccc(C(=O)NN=Cc2ccc(F)cc2)cc1 [Compound 8]	20.2
CS(=O)(=O)c1ccc(C(=O)NN=Cc2ccccc2F)cc1 [Compound 14]	49.2
O=c1[nH]cc(F)c(=O)[nH]1 [Compound 5-Fu, 5-fluorouracil, reference compound]	75.2

Task: // lookup inhibition at 10 µM for CCN(CC)c1ccc(/C=N/NC(=O)c2ccc(S(C)(=O)=O)cc2)c(O)c1 [Compound 20]
Output: 91

###

# System: UO-31
# ASSAY_OVERVIEW: NCI antitumor screen (SRB)
# Type: cell-based, human
# PARTICULARS: Homo sapiens; UO-31; one dose 10 µM; read-out: Growth inhibition percentage (GI%)
Recorded inhibition at 10 µM for the following compounds
Numeric only. Scale: %

Reference set, count: 3
COMPOUND	ENDPOINT_RESULT
COc1cc(/C=N/NC(=O)c2ccc(S(C)(=O)=O)cc2)ccc1O	12.8
O=c1[nH]cc(F)c(=O)[nH]1 [Compound 5-Fu, 5-fluorouracil, reference compound]	58.7
COc1cc(C=NNC(=O)c2ccc(S(C)(=O)=O)cc2)cc(OC)c1OC	10.2

Task: // lookup inhibition at 10 µM for CS(=O)(=O)c1ccc(C(=O)NN=Cc2ccccc2Cl)cc1
Output: 15.7

Task: Same question, COc1ccccc1C=NNC(=O)c1ccc(S(C)(=O)=O)cc1 this time
Output: 14.4

###

# Test system: NCI-H23
# ASSAY_OVERVIEW: NCI antitumor screen (SRB)
# Type: cell-based
# PARTICULARS: Homo sapiens, one dose 10 µM, read-out: Growth inhibition percentage (GI%)
Parameter threshold = 20%. Response is fulfilled when inhibition at 10 µM meets or exceeds it, else not fulfilled.

MOLECULE	LABEL
CCN(CC)c1ccc(/C=N/NC(=O)c2ccc(S(C)(=O)=O)cc2)c(O)c1	fulfilled
Cc1ccc(NC(=O)c2ccc(CN3CCN(C)CC3)cc2)cc1Nc1nccc(-c2cccnc2)n1 [Imatinib, imatinib, reference compound]	not fulfilled

Task: # bool: inhibition at 10 µM of CS(=O)(=O)c1ccc(C(=O)N/N=C/c2ccccc2O)cc1 >= 20%
Output: fulfilled

Task: Same question, CS(=O)(=O)c1ccc(C(=O)NN=Cc2cccc3ccccc23)cc1 this time
Output: not fulfilled

Task: Same question, O=c1[nH]cc(F)c(=O)[nH]1 [Compound 5-Fu, 5-fluorouracil, reference compound] this time
Output: fulfilled

Task: Same question, Cc1ccc(C=NNC(=O)c2ccc(S(C)(=O)=O)cc2)cc1 this time
Output: not fulfilled

###

# Test system: NCI-H460
# ASSAY_OVERVIEW: NCI antitumor screen (SRB)
# Format: cell-based
# PARTICULARS: Homo sapiens, one dose 10 µM, read-out: Growth inhibition percentage (GI%)
PARAMETER_MEASURED: inhibition at 10 µM

Reference set, count: 5
COMPOUND	inhibition at 10 µM
CCN(CC)c1ccc(/C=N/NC(=O)c2ccc(S(C)(=O)=O)cc2)c(O)c1 [Compound 20]	96.7%
Cc1ccc(NC(=O)c2ccc(CN3CCN(C)CC3)cc2)cc1Nc1nccc(-c2cccnc2)n1 [Imatinib, imatinib, reference compound]	< 10%
CS(=O)(=O)c1ccc(C(=O)N/N=C/c2ccccc2O)cc1 [Compound 16]	85.9%
CS(=O)(=O)c1ccc(C(=O)NN=Cc2cccc3ccccc23)cc1 [Compound 6]	33.2%
Cc1ccc(C=NNC(=O)c2ccc(S(C)(=O)=O)cc2)cc1 [Compound 9]	< 10%

Attention now turns to another entry.
Task: // lookup inhibition at 10 µM for O=c1[nH]cc(F)c(=O)[nH]1 [Compound 5-Fu, 5-fluorouracil, reference compound]
Output: 87%

###

# System: ACHN
# ASSAY_OVERVIEW: NCI antitumor screen (SRB)
# Assay type: cell-based
# PARTICULARS: Homo sapiens, one dose 10 µM, read-out: Growth inhibition percentage (GI%)
PARAMETER_MEASURED: inhibition at 10 µM (%)
Numeric only. Scale: %

COMPOUND	PARAMETER_MEASURED	ENDPOINT_RESULT
O=c1[nH]cc(F)c(=O)[nH]1 [Compound 5-Fu, 5-fluorouracil, reference compound]	inhibition at 10 µM	60.7
CCN(CC)c1ccc(/C=N/NC(=O)c2ccc(S(C)(=O)=O)cc2)c(O)c1	inhibition at 10 µM	82.9

Attention now turns to another entry.
Task: // lookup inhibition at 10 µM for CS(=O)(=O)c1ccc(C(=O)N/N=C/c2ccccc2O)cc1
Output: 71.7

###

# Tested on: NCI-H522
# ASSAY_OVERVIEW: NCI antitumor screen (SRB)
# Type: cell-based
# PARTICULARS: Homo sapiens, NCI-H522, read-out: Growth inhibition percentage (GI%)
Parameter threshold = 20%. Response is Satisfied when inhibition at 10 µM meets or exceeds it, else Not satisfied.

Use these answered entries as a reference point.
CS(=O)(=O)c1ccc(C(=O)NN=Cc2ccc(F)cc2)cc1 Not satisfied
CS(=O)(=O)c1ccc(C(=O)NN=Cc2cccc3ccccc23)cc1 Satisfied
CS(=O)(=O)c1ccc(C(=O)NN=Cc2ccccc2)cc1 Satisfied

// switching to the query compound
Task: # bool: inhibition at 10 µM of CS(=O)(=O)c1ccc(C(=O)N/N=C/c2ccc(O)cc2)cc1 >= 20%
Output: Not satisfied

Reference for the values: paper PMC8288134
